Taken from ChEMBL document CHEMBL1201862.

Reported AC50 values for a set of molecules
# assay system: FAD-linked sulfhydryl oxidase ALR (Homo sapiens, UniProt P55789)
# Sequence (P55789 whole entry): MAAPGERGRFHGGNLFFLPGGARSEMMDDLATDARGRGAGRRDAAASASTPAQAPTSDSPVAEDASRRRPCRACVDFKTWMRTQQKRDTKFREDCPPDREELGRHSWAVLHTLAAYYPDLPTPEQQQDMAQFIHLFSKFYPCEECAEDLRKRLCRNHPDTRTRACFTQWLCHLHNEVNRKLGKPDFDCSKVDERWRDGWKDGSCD
# test details: inhibitors of human ALR sulfhydryl oxidase, dose response, biochemical, H2O2 detection, luminescence, cherry-pick (AID 493248)
Activity calls are given as the source filed them. No stated cut-off is given here; in the data, actives have a measured AC50 and inactives only a lower limit.

>>> recorded_value("COC(=O)CNc1c(-c2ccccc2)nc2ccc(Br)cn12")
"1080 nM (active)"
>>> recorded_value("Cc1ccc(-c2nc(C#N)c(NCCN3CCCCC3)o2)cc1")
"4400 nM (active)"
>>> recorded_value("c1ccc(-n2cnc3cc(NCc4ccccn4)ccc32)cc1")
"1170 nM (active)"
>>> recorded_value("COc1ccc(-c2n[nH]c(=S)[nH]2)cc1OC")
"11 nM (active)"
>>> recorded_value("Cc1ccc(C[S+]([O-])Cc2ccc(C(=O)N3CCN(c4ccccc4)CC3)o2)cc1 (stereo not drawn)")
"5920 nM (active)"
>>> recorded_value("O=C(O)c1ccccc1C(=O)Nc1ccc(-c2csc(-c3ccccc3)n2)cc1")
"218 nM (active)"

So what does the record say about AC50 for O=C(O)C1CSC(c2coc3ccccc3c2=O)N1 (stereo not drawn) ?
83 nM (active)

Find the recorded AC50 belonging to `C=CCNC(=O)c1onc(CSc2cc(C)ccc2C)c1C(=O)O` and report it.
4810 nM (active)
